Test system: CDK1-dependent Eg-5 phosphorylation on threonine 927
Assay: In-cell Eg-5 phosphorylation (immunoblot)
Assay type: cell-based, human
Settings: HCT116 cells, 1 h
quantity measured: IC50

Find the measured IC50 of COc1ccc(F)c(F)c1C(=O)c1cnc(NC2CCN(S(C)(=O)=O)CC2)nc1N [Compound R547] and report it. ~0.1 µM

* * *

Test system: CDK9-specific phosphorylation of RNA polymerase II (RNAPII) on serine 2
Test: In-cell RNAPII phosphorylation (immunoblot)
Type: cell-based, human
Settings: Homo sapiens, RPMI-8226; RPMI8226 cells, 3 h
quantity measured: IC50

Find the measured IC50 of CC(C)c1nn(-c2c(Cl)cncc2Cl)c2nc(Cc3ccc(CN4CCCC4)c(O)c3)[nH]c(=O)c12 [Compound I] and report it. ~0.1 µM

* * *

Assay: Solubility assay at pH 7.4
Assay type: physicochemical
Conditions: pH 7.4, aqueous buffer
quantity measured: solubility

CC(C)c1nn(-c2c(Cl)cncc2Cl)c2nc(Cc3ccc(CN4CCCC4)c(O)c3)[nH]c(=O)c12 ... ~390 µM

Could you now look at the following molecule, please?
Find the measured solubility of CC(C)c1nn(-c2c(Cl)cccc2Cl)c2nc(Cc3ccc(CN4CCCC4)c(O)c3)[nH]c(=O)c12 and report it. ~210 µM

* * *

System: CDK4/6-specific phosphorylation of Rb on serine 780
Experiment: In-cell Rb phosphorylation (immunoblot)
Assay type: cell-based, human
Conditions: Homo sapiens, RPMI-8226, 1 h, RPMI8226 cells, read-out: IC50 (uM) - Rb-5 phosphorylation
quantity measured: IC50

Find the measured IC50 of CC(C)c1nn(-c2c(Cl)cncc2Cl)c2nc(Cc3ccc(CN4CCCC4)c(O)c3)[nH]c(=O)c12 [Compound I] and report it. ~5 µM

* * *

Tested on: CDK1-dependent Eg-5 phosphorylation on threonine 927
Experiment: In-cell Eg-5 phosphorylation (immunoblot)
Assay type: cell-based, human
Conditions: Homo sapiens; Raji cells, 1 h
quantity measured: IC50

Find the measured IC50 of CC(C)c1nn(-c2c(Cl)cncc2Cl)c2nc(Cc3ccc(CN4CCCC4)c(O)c3)[nH]c(=O)c12 [Compound I] and report it. > 1 µM

* * *

Tested on: CDK4/6-specific phosphorylation of Rb on serine 780
Assay: In-cell Rb phosphorylation (immunoblot)
Assay type: cell-based, human
Conditions: Homo sapiens, SK-MEL-28, 1 h, Sk-mel-28 cells, read-out: IC50 (uM) - Rb-5 phosphorylation
quantity measured: IC50

Find the measured IC50 of CC(C)c1nn(-c2c(Cl)cncc2Cl)c2nc(Cc3ccc(CN4CCCC4)c(O)c3)[nH]c(=O)c12 and report it. ~3 µM

* * *

Tested on: CDK4/6-specific phosphorylation of Rb on serine 780
Assay: In-cell Rb phosphorylation (immunoblot)
Type: cell-based, human
Conditions: Homo sapiens, A2780, 1 h, A2780 cells, read-out: IC50 (uM) - Rb-5 phosphorylation
quantity measured: IC50

Find the measured IC50 of CC(C)c1nn(-c2c(Cl)cncc2Cl)c2nc(Cc3ccc(CN4CCCC4)c(O)c3)[nH]c(=O)c12 and report it. ~0.5 µM

* * *

Target: CDK9 (Homo sapiens, UniProt P50750)
Sequence (P50750 whole entry): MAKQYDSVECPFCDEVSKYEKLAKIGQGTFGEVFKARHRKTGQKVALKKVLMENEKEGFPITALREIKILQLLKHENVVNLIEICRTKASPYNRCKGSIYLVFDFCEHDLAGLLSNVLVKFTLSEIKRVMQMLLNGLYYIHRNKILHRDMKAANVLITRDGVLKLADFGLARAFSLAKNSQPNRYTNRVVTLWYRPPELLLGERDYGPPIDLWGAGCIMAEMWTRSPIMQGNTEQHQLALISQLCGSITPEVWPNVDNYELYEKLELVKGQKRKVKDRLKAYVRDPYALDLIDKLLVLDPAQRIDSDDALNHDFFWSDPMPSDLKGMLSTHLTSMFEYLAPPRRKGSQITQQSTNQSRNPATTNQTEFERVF
Sequence (O60563 whole entry partner): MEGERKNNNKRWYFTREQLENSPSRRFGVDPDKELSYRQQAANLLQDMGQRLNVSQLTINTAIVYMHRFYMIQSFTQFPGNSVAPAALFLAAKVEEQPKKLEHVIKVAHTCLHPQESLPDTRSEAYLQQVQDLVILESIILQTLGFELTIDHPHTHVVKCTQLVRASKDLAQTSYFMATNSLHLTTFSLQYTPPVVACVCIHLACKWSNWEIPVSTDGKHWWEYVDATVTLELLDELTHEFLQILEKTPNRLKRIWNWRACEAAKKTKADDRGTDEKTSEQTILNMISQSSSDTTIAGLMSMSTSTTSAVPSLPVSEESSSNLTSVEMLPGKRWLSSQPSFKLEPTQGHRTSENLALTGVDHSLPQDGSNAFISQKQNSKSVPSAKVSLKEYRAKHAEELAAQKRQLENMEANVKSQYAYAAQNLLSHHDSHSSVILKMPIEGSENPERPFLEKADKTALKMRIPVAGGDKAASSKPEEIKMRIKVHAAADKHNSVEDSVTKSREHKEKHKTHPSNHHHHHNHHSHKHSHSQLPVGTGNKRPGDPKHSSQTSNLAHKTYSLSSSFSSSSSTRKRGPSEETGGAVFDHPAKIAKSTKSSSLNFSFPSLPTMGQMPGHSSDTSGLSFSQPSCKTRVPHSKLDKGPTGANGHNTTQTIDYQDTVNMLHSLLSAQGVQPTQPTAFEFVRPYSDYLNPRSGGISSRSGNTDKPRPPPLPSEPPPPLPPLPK
pIC50: −log10 of the molar value.
quantity measured: pIC50

Find the measured pIC50 of CC(C)c1nn(-c2c(Cl)cncc2Cl)c2nc(Cc3ccc(CN4CCCC4)c(O)c3)[nH]c(=O)c12 [Compound I] and report it. 8.00 to 9.00
